Study system: Acetylcholinesterase (Homo sapiens, UniProt P22303)
Sequence (P22303 whole entry): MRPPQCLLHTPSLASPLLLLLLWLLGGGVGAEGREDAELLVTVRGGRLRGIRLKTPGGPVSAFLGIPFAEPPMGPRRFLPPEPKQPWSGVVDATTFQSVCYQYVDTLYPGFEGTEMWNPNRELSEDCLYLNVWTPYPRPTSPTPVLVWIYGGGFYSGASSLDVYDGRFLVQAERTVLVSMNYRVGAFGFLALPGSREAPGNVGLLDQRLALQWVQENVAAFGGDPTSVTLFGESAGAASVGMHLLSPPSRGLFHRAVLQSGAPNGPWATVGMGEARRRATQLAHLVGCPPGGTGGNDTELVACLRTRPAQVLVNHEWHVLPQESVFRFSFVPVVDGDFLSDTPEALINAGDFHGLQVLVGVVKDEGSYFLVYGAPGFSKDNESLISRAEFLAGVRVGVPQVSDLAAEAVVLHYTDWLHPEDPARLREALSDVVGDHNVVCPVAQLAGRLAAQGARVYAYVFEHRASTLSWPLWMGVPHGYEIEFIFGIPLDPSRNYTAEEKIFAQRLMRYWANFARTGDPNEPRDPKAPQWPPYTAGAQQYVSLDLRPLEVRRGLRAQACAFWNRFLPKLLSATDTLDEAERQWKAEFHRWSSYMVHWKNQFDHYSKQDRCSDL
Result type: Ki (nM)
The figure you give is taken to be in nM; do not add the unit.

Request the reported Ki associated with "COc1ccccc1CN(C)CCCCCC(=O)N(C)CCCCCCCCN(C)C(=O)CCCCCN(C)Cc1ccccc1OC"
0.104

====

Record: pIC50 reported on Acetylcholinesterase (Homo sapiens).
# pIC50 = -log10(concentration in molar units)

Request the reported pIC50 associated with "COc1ccccc1CN(C)CCCCCC(=O)N(C)CCCCCCCCN(C)C(=O)CCCCCN(C)Cc1ccccc1OC"
6.77

Ok, now "COc1ccccc1CNCCCCCC(=O)N(C)CCCCCCCCN(C)C(=O)CCCCCNCc1ccccc1OC"
6.51

Ok, now "COc1ccccc1CNCCCCCC(=O)NCCCCCCCCNC(=O)CCCCCNCc1ccccc1OC"
5.73

Ok, now "COc1ccccc1CNCCCCCCNCCCCCCNCCCCCCNCc1ccccc1OC"
5.19

Ok, now "NCCCCCCNCCSSCCNCCCCCCN"
3.30

Ok, now "COc1ccccc1CNCCCCCCNCCSSCCNCCCCCCNCc1ccccc1OC"
5.14

Ok, now "COc1ccccc1CNCCCCCCNCCCCCNCCCCCCNCc1ccccc1OC"
5.14

The origin of these recorded values is ChEMBL document CHEMBL1131149.
